Taken from ChEMBL document CHEMBL1147003.

# pIC50 listing for each entry below
Tested on: Plasmodium falciparum
test details: Antimalarial activity against Plasmodium falciparum
Assay type: functional, organism-based
run parameters: Plasmodium falciparum
The meaning of pIC50 here: minus log10 of the concentration in molar units.

Worked cases, answers included:
molecule	pIC50
Cl.Nc1ccc(SC[C@@H]2CO[C@@](CCc3ccc(Cl)cc3)(Cn3ccnc3)O2)cc1	5.89
Cl.Cl.Clc1ccc(CC[C@@]2(Cn3ccnc3)OC[C@@H](CSc3ccncc3)O2)cc1	5.31
Cl.Nc1cccc(SC[C@@H]2CO[C@@](CCc3ccc(Cl)cc3)(Cn3ccnc3)O2)c1	5.70
Cl.Nc1ccc(SC[C@H]2CO[C@](CCc3ccc(Cl)cc3)(Cn3ccnc3)O2)cc1	5.52
Cl.Clc1ccc(CC[C@]2(Cn3ccnc3)OC[C@@H](CSc3ccc4ccccc4c3)O2)cc1	5.92

Lab note: Cl.FC[C@@H]1CO[C@@](CCc2ccc(Cl)cc2)(Cn2ccnc2)O1 gave pIC50 of 4.70

# molecule Cc1ccc(S(=O)(=O)OC[C@H]2CO[C@](CCc3ccc(Cl)cc3)(Cn3ccnc3)O2)cc1 ; its pIC50 = 5.55

Lookup result for COc1ccc(SC[C@@H]2CO[C@@](CCc3ccc(Cl)cc3)(Cn3ccnc3)O2)cc1.Cl ; measured pIC50: 5.46

// Cc1ccc(S(=O)(=O)OC[C@@H]2CO[C@@](CCc3ccc(Cl)cc3)(Cn3ccnc3)O2)cc1 : pIC50 value = 5.54

Measured pIC50 of Cl.OC[C@@H]1CO[C@@](CCc2ccc(Cl)cc2)(Cn2ccnc2)O1 : 5.05

// Cl.Clc1ccc(CC[C@@]2(Cn3ccnc3)OC[C@@H](CSc3ccc(Br)cc3)O2)cc1 : pIC50 value = 6.05

Recorded result, Cl.Fc1ccc(COC(CCc2ccc(Cl)cc2)Cn2ccnc2)cc1 (stereo not drawn) , pIC50: 6.10

// Cl.Clc1ccc(CC[C@@]2(Cn3ccnc3)OC[C@@H](CSc3ccccc3)O2)cc1 : pIC50 value = 5.48
